The reported measurements were obtained from the supplement of paper PMC10127200.

System: OVCAR4
Test details: Euclidean distance of Cell Painting phenotypic profile (signed KS, 77 features) to DMSO centroid (dimensionless distance); higher = stronger phenotypic change vs DMSO (phenoactivity)
Recorded conditions: 48 h; 5 or 10 uM (library dependent)
Structures can show the parent of a compound that is named as a salt.

{"Compound": "CN1C[C@H](C(=O)N[C@]2(C)O[C@@]3(O)[C@@H]4CCCN4C(=O)[C@H](Cc4ccccc4)N3C2=O)C[C@@H]2c3cccc4[nH]cc(c34)C[C@H]21 [Dihydroergotamine Mesylate]", "Euclidean distance": 1.25}
{"Compound": "CC1(C)S[C@@H]2[C@H](N)C(=O)N2[C@H]1C(=O)O", "Euclidean distance": 1.5}
{"Compound": "C[C@H]1O[C@H](O[C@H]2[C@H](O)[C@@H](O)[C@@H](O)[C@H](O)[C@@H]2O)[C@@H](N)C[C@@H]1NC(=N)C(=O)O [Kasugamycin hydrochloride]", "Euclidean distance": 0.934}

====

Tested on: FB
Test details: Euclidean distance of Cell Painting phenotypic profile (signed KS, 77 features) to DMSO centroid (dimensionless distance); higher = stronger phenotypic change vs DMSO (phenoactivity)
Recorded conditions: 48 h; 5 or 10 uM (library dependent)
Binning of Euclidean distance into classes: low: < 0.9; intermediate: ≥ 0.9 and < 1; high: ≥ 1

{"Molecule": "CC(C)(C)[C@]1(O)CC2OC(=O)CC23C(=O)OC2OC(=O)[C@H](O)C231 (some centres undefined) [Bilobalide]", "Assigned label": "low"}
{"Molecule": "CCCN1CCO[C@@H]2c3cc(O)ccc3OC[C@H]21", "Assigned label": "intermediate"}
{"Molecule": "CO[C@]12C[C@@H](COC(=O)c3cncc(Br)c3)CN(C)[C@@H]1Cc1cn(C)c3cccc2c13", "Assigned label": "intermediate"}
{"Molecule": "CCOc1ccccc1-n1c(C(C)N2CCN(C(=O)COc3ccc(Cl)cc3)CC2)nc2ccccc2c1=O (centres undefined)", "Assigned label": "high"}
{"Molecule": "COc1cc(OC)c(OC)cc1C=O", "Assigned label": "high"}
{"Molecule": "CC(C)[C@H](N)C(=O)N1CCC[C@H]1B(O)O", "Assigned label": "high"}

====

Tested on: HEPG2
Test details: Euclidean distance of Cell Painting phenotypic profile (signed KS, 77 features) to DMSO centroid (dimensionless distance); higher = stronger phenotypic change vs DMSO (phenoactivity)
Recorded conditions: 48 h; 5 or 10 uM (library dependent)
Parameter: Euclidean distance

{"Compound": "O=C(O)c1nn(Cc2ccc(Cl)cc2Cl)c2ccccc12", "Result value": 0.957}
{"Compound": "Cc1cc(SCc2sc(-c3ccc(C(F)(F)F)c(F)c3)nc2C)ccc1OCC(=O)O", "Result value": 2.24}
{"Compound": "O=P(O)(NCCCl)NCCCl [Palifosfamide]", "Result value": 0.698}
{"Compound": "O=C(O[C@H]1C[N+]2(CCCOc3ccccc3)CCC1CC2)C(O)(c1cccs1)c1cccs1 [Aclidinium Bromide]", "Result value": 0.61}
{"Compound": "C[N+]12CCC(CC1)C(OC(=O)C(O)(c1ccccc1)c1ccccc1)C2 (stereo not given) [Clidinium Bromide]", "Result value": 0.445}

====

Tested on: HEPG2
Test details: Euclidean distance of Cell Painting phenotypic profile (signed KS, 77 features) to DMSO centroid (dimensionless distance); higher = stronger phenotypic change vs DMSO (phenoactivity)
Recorded conditions: 48 h; 5 or 10 uM (library dependent)
Where a name gives a salt, the structure may show the parent alone.
Parameter: Euclidean distance

{"Compound": "CCC1=C[C@H]2CN3CCc4c([nH]c5ccccc45)[C@](C(=O)OC)(C2)[C@H]13", "Tested system": "HEPG2", "Parameter": "Euclidean distance", "Result value": 0.581}
{"Compound": "Cc1cccc(C)c1NC1=NCCCS1", "Tested system": "HEPG2", "Parameter": "Euclidean distance", "Result value": 0.887}
{"Compound": "C#C[C@]1(OC(=O)CCCCCC)CC[C@H]2[C@@H]3CCC4=CC(=O)CC[C@@H]4[C@H]3CC[C@@]21C [Norethisterone Enanthate]", "Tested system": "HEPG2", "Parameter": "Euclidean distance", "Result value": 2.23}
{"Compound": "CC(=O)OC12COC1CC(O)C1(C)C(=O)C(O)C3=C(C)C(O)CC(O)(C(OC(=O)c4ccccc4)C21)C3(C)C (stereo not drawn)", "Tested system": "HEPG2", "Parameter": "Euclidean distance", "Result value": 1.38}
{"Compound": "CN1[C@@H]2CC[C@H]1C[C@@H](OC(=O)[C@H](CO)c1ccccc1)C2", "Tested system": "HEPG2", "Parameter": "Euclidean distance", "Result value": 0.646}
{"Compound": "C=C(C)[C@H]1Cc2c(ccc3c2O[C@@H]2COc4cc(OC)c(OC)cc4[C@@H]2C3=O)O1", "Tested system": "HEPG2", "Parameter": "Euclidean distance", "Result value": 2.94}
{"Compound": "OC(c1ccccc1)(c1ccccc1)C1CCNCC1", "Tested system": "HEPG2", "Parameter": "Euclidean distance", "Result value": 2.31}
{"Compound": "CC(NC(C)(C)C)C(=O)c1cccc(Cl)c1 (stereo not drawn) [Amfebutamone HCl]", "Tested system": "HEPG2", "Parameter": "Euclidean distance", "Result value": 0.846}
{"Compound": "CN1CCN(c2nc3ccccc3nc2Cl)CC1", "Tested system": "HEPG2", "Parameter": "Euclidean distance", "Result value": 0.638}
{"Compound": "Cc1cc(O)ccc1Cl", "Tested system": "HEPG2", "Parameter": "Euclidean distance", "Result value": 0.668}
{"Compound": "CC(C)N(CCNC(=O)CN1CCCC1=O)C(C)C", "Tested system": "HEPG2", "Parameter": "Euclidean distance", "Result value": 0.534}
{"Compound": "CN1CCc2cc3c(cc2C1C1OC(=O)c2c1ccc1c2OCO1)OCO3 (single isomer, unassigned; (+)) [(+)-Bicuculline]", "Tested system": "HEPG2", "Parameter": "Euclidean distance", "Result value": 0.778}
{"Compound": "CC(C)NCC(O)c1ccccc1Cl (stereo not drawn) [Clorprenaline HCl]", "Tested system": "HEPG2", "Parameter": "Euclidean distance", "Result value": 0.405}
{"Compound": "COc1ccc2[nH]cc(CCN)c2c1", "Tested system": "HEPG2", "Parameter": "Euclidean distance", "Result value": 0.952}
{"Compound": "Cn1c(COP(=O)(NCCBr)NCCBr)cnc1[N+](=O)[O-] [Evofosfamide (TH-302)]", "Tested system": "HEPG2", "Parameter": "Euclidean distance", "Result value": 1.86}
{"Compound": "CN1[C@@H]2CC(O)C[C@H]1[C@@H]1O[C@@H]12 (stereo partly drawn) [Scopine HCl]", "Tested system": "HEPG2", "Parameter": "Euclidean distance", "Result value": 0.893}
{"Compound": "COc1cc2c(cc1OC)C1CC(=O)C(CC(C)C)CN1CC2 (stereo not drawn)", "Tested system": "HEPG2", "Parameter": "Euclidean distance", "Result value": 1.74}
{"Compound": "CCN1CCN(C(=O)Cc2ccc(Nc3ncc(F)c(Nc4ccc(C(=O)Nc5ccccc5Cl)cc4)n3)cc2)CC1", "Tested system": "HEPG2", "Parameter": "Euclidean distance", "Result value": 4.52}

====

Measured Euclidean distance of individual entries
Test system: DU145
Test details: Euclidean distance of Cell Painting phenotypic profile (signed KS, 77 features) to DMSO centroid (dimensionless distance); higher = stronger phenotypic change vs DMSO (phenoactivity)
Recorded conditions: 48 h; 5 or 10 uM (library dependent)
Where a name gives a salt, the structure may show the parent alone.

{"Compound": "CC(C)N(CCNC(=O)CN1CCCC1=O)C(C)C", "Tested system": "DU145", "Euclidean distance": 0.543}
{"Compound": "[O-][n+]1ccccc1[S-].[O-][n+]1ccccc1[S-].[Zn+2]", "Tested system": "DU145", "Euclidean distance": 7.6}
{"Compound": "CN1[C@@H]2CC(O)C[C@H]1[C@@H]1O[C@@H]12 (stereo not given in full) [Scopine HCl]", "Tested system": "DU145", "Euclidean distance": 0.479}
{"Compound": "O=[N+]([O-])c1ncc[nH]1", "Tested system": "DU145", "Euclidean distance": 1.36}
{"Compound": "Cl[TeH]1(Cl)(Cl)OCCO1.N", "Tested system": "DU145", "Euclidean distance": 2.01}
{"Compound": "C=CCC(C(=O)NC(N)=O)C(C)C (stereo not given)", "Tested system": "DU145", "Euclidean distance": 1.07}
{"Compound": "c1cc2c(cc1[C@H]1OC[C@H]3[C@@H]1CO[C@@H]3c1ccc3c(c1)OCO3)OCO2", "Tested system": "DU145", "Euclidean distance": 0.678}
{"Compound": "C[N+]1(C)[C@@H]2C[C@@H](OC(=O)[C@H](CO)c3ccccc3)C[C@H]1[C@@H]1O[C@@H]12", "Tested system": "DU145", "Euclidean distance": 0.721}
{"Compound": "C[C@]12CC[C@@H](O)C[C@@H]1CC[C@@H]1[C@@H]2CC[C@]2(C)C(=O)CC[C@@H]12", "Tested system": "DU145", "Euclidean distance": 1.2}
{"Compound": "C[S+]([O-])CCCCN=C=S (stereo not given)", "Tested system": "DU145", "Euclidean distance": 1.89}
{"Compound": "Cc1ncc(CNC(=O)N(CCCl)N=O)c(N)n1 [Nimustine Hydrochloride]", "Tested system": "DU145", "Euclidean distance": 0.692}
{"Compound": "CN1C[C@H](C(=O)N[C@]2(C)O[C@@]3(O)[C@@H]4CCCN4C(=O)[C@H](Cc4ccccc4)N3C2=O)C[C@@H]2c3cccc4[nH]cc(c34)C[C@H]21 [Dihydroergotamine Mesylate]", "Tested system": "DU145", "Euclidean distance": 0.862}
{"Compound": "C=C1C[C@@H]2[C@H](CC[C@]3(C)C(=O)CC[C@@H]23)[C@@]2(C)C=CC(=O)C=C12", "Tested system": "DU145", "Euclidean distance": 0.488}
{"Compound": "C[C@@H]1[C@H](O)[C@@H](C)/C=C/C=C/CC/C=C/C=C/C=C/C=C/[C@H](O[C@H]2O[C@@H](C)[C@H](O)[C@@H](N)[C@H]2O)C[C@@H]2O[C@](O)(C[C@@H](O)[C@H](O)CC[C@@H](O)C[C@@H](O)C[C@@H](O)CC(=O)O[C@H]1C)C[C@H](O)[C@H]2C(=O)O", "Tested system": "DU145", "Euclidean distance": 1.4}
{"Compound": "CC(=O)O[C@H]1C[C@H](O[C@H]2[C@@H](O)C[C@H](O[C@H]3[C@@H](O)C[C@H](O[C@H]4CC[C@@]5(C)[C@H](CC[C@@H]6[C@@H]5C[C@@H](O)[C@]5(C)[C@@H](C7=CC(=O)OC7)CC[C@]65O)C4)O[C@@H]3C)O[C@@H]2C)O[C@H](C)[C@H]1O[C@@H]1O[C@H](CO)[C@@H](O)[C@H](O)[C@H]1O [Lanatoside C]", "Tested system": "DU145", "Euclidean distance": 7.41}
